Data provenance is patent US20260092062A1.

# system-tested: E297G variant of human ABCB11 (Homo sapiens, UniProt O95342, E297G)
# Sequence (O95342 whole entry E297G): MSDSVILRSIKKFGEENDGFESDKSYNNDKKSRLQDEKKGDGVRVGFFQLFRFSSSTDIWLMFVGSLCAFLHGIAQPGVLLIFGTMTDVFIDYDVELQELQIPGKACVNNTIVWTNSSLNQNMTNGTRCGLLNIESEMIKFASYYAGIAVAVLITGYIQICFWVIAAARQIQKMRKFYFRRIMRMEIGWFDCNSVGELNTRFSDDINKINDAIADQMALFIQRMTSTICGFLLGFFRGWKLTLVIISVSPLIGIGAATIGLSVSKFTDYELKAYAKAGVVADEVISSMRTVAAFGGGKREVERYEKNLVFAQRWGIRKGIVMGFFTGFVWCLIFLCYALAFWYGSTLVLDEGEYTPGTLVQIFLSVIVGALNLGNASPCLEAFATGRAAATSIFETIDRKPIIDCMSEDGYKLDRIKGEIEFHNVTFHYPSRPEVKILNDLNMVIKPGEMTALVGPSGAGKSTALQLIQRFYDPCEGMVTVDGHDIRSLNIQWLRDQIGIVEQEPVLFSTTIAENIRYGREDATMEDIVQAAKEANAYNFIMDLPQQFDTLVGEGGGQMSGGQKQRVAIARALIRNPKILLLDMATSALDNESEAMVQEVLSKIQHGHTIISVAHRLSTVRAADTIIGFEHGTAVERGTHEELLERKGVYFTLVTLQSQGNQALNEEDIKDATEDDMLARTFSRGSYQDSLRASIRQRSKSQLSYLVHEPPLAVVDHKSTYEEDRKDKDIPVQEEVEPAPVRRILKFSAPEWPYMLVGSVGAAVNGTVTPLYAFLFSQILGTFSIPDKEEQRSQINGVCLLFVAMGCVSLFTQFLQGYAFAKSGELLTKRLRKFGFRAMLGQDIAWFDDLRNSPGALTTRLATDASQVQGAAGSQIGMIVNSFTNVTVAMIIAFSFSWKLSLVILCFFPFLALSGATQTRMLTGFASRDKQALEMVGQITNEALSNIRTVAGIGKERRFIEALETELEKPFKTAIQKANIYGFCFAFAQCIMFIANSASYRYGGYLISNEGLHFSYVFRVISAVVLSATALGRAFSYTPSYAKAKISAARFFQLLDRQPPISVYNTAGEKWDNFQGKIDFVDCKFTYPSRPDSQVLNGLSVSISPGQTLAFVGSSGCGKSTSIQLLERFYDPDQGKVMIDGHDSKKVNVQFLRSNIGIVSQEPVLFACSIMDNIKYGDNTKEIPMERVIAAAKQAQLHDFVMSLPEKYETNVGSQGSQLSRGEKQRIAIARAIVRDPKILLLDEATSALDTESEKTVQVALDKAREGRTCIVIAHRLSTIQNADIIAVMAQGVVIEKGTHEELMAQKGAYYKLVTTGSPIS
# experiment-description: ABCB11 E297G expression assay (HiBit lytic luminescence) in HEK-293/E297G cells
# conditions: increase in expression of ABCB11 E297G, 24 hours treatment, top concentration 25 μM, class also includes Emax criterion, read-out: BSEP EC50
parameter-measured: EC50

Exercise: Give EC50 for `CCOC(=O)N1CCC(C(=O)Nc2ccc(C)c(-c3cn(C)c(=O)c4[nH]ccc34)n2)CC1`
Solution: 2.5 to 10 µM

Exercise: Give EC50 for `Cc1ccc(NC(=O)c2cc(-c3ccccc3)no2)nc1-c1cn(C)c(=O)c2[nH]ccc12`
Solution: > 25 µM

Exercise: Give EC50 for `Cc1ccc(NC(=O)c2cnc(-c3ccccn3)nc2)nc1-c1cn(C)c(=O)c2[nH]ccc12`
Solution: 2.5 to 10 µM

Exercise: Give EC50 for Cc1ccc(NC(=O)C2CCc3ccccc32)nc1-c1cn(C)c(=O)c2[nH]ccc12 (centres unmarked)
Solution: 2.5 to 10 µM

Exercise: Give EC50 for `Cc1ccc(NC(=O)c2ccc3c(ccn3C)c2)nc1-c1cn(C)c(=O)c2[nH]ccc12`
Solution: 2.5 to 10 µM

Exercise: Give EC50 for `Cc1ccc(NC(=O)C2CCN(S(C)(=O)=O)CC2)nc1-c1cn(C)c(=O)c2[nH]ccc12`
Solution: 10 to 25 µM

Exercise: Give EC50 for `Cc1ccc(NC(=O)c2cnn(-c3ccccc3)c2C)nc1-c1cn(C)c(=O)c2[nH]ccc12`
Solution: > 25 µM

Exercise: Give EC50 for Cc1ccc(NC(=O)C2CCC(F)(F)C2)nc1-c1cn(C)c(=O)c2[nH]ccc12 (centres unmarked)
Solution: < 2.5 µM
